Reference for the values: patent US9550756B2

Kindly supply the reported melting point values for the records listed here.

Some solved entries appear below for comparison.
compound_string	reported_result
O=c1ccn(-c2cccc(C(F)(F)F)c2)nc1-c1ncnn1-c1ccccc1	167 to 168 °C
CC(C)Cn1nccc1-c1nn(-c2cccc(C(F)(F)F)c2)ccc1=O	120 to 121 °C
O=c1ccn(-c2cccc(Oc3nc4ccccc4[nH]3)c2)nc1-c1ccnn1-c1ccccc1	149 to 150 °C

Could I get melting point for every one of these entries?
1. O=c1ccn(-c2cccc(C(F)(F)F)c2)nc1-c1ccnn1-c1ccc(Cl)cc1
2. O=c1c(OC(F)F)cn(-c2cccc(C(F)(F)F)c2)nc1-c1ccnn1-c1ccccc1
3. O=c1ccn(-c2ccncc2)nc1-c1ccnn1-c1ccccc1
4. O=c1c(O)cn(-c2ccccc2F)nc1-c1ccnn1-c1ccccc1
5. CC(C)n1nccc1-c1nn(-c2cccc(C(F)(F)F)c2)ccc1=O
6. O=c1ccn(-c2cccc(C(F)(F)F)c2)nc1-c1ccnn1-c1ccccn1

["166 to 167 °C", "132 to 134 °C", "202 to 203 °C", "218 to 220 °C", "183 to 184 °C", "189 to 190 °C"]

Answer with the recorded melting point for the compound listed here: CC(C)n1cc(-c2nn(-c3cccc(C(F)(F)F)c3)ccc2=O)c(-c2ccccc2)n1
138 to 140 °C
